B1: Azoarcus group I ribozyme (parent)
chain: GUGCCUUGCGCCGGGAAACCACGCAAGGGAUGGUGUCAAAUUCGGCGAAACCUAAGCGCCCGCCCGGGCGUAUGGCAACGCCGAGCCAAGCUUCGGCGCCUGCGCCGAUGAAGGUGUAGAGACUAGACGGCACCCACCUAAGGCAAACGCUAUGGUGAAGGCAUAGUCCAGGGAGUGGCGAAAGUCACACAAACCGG

# Variants of: B1
# protocol.notes: reverse-splicing fitness (ratio to wild type); higher = more active; in vitro selection; Mg2+ level not given
Classify by measured reverse-splicing fitness: True if it is equal to or exceeds 0.01, False if it is smaller.

Would you please look over these solved cases?
>>> assigned_class("C82U A111G A145G C169G U176A")
"True"
>>> assigned_class("C82G A111C A145U C150G C169A")
"False"
>>> assigned_class("C82U A111C A145U C150A C169A U176C")
"True"

**Q:** In plain terms: is recorded reverse-splicing fitness at least 0.01 for A111C A120U A145G C150G C169U U176C ?
**A:** False

**Q:** In plain terms: is recorded reverse-splicing fitness at least 0.01 for C82A A111C A120C C169A U176A ?
**A:** True

**Q:** In plain terms: is recorded reverse-splicing fitness at least 0.01 for C82U A120C C150A C169G U176G ?
**A:** False

Hey, just so you know, these numbers are from the RNAGym collection of RNA variant scans (doi:10.1093/molbev/msab373).
